- assay target: human amylin receptor (hAMYR3) (Homo sapiens, UniProt O60896+P30988)
- Construct: host or cells: BHK cells (Hollex-1 line expressing hCTR(a) and CRE-Luc), further transfected with human RAMP3
- Sequence (P30988 25-474): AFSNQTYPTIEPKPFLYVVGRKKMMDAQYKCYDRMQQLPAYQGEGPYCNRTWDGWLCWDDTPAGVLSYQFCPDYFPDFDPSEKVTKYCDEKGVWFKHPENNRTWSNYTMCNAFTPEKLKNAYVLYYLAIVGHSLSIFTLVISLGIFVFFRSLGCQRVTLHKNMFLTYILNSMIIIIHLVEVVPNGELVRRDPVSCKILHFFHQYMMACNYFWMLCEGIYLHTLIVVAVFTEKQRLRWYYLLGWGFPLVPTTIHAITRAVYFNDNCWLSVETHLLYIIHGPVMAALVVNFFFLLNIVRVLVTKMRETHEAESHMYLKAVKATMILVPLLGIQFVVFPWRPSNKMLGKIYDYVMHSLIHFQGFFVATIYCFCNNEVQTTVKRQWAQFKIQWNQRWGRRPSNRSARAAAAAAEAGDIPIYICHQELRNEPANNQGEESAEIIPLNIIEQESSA
- Sequence (O60896 24-148): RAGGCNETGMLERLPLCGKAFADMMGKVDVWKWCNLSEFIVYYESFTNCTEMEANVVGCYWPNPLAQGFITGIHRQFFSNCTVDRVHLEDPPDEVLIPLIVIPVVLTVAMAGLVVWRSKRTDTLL
- run description: Amylin receptor assay, method A (CRE-luciferase reporter, BHK cells)
- Type: cell-based
- measurement context: method A, absence of HSA; read-out: hAMYR3 Potency, no HSA, EC50
Numbered stars: 1 amine (or outer) side, 2 acyl side, 3 side chain; on linkers, the order of the positions; unused ones are H or OH. Square brackets hold non-standard residues; d marks the D form. Side chains are listed from the residue outwards. * marks the point of attachment. C18 diacid = O=C(O)CCCCCCCCCCCCCCCCC(=O)*; γGlu = O=C(O)[C@H](CCC(=O)[*:2])N[*:1]; AEEA = NCCOCCOCC(=O)O; Aib = CC(C)(N)C(=O)O
reported metric: pEC50
By convention, pEC50 is the negative base-10 log of a molar concentration.

Task: Find the recorded pEC50 belonging to Y[Aib]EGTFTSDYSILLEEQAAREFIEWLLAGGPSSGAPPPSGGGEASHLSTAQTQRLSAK([AEEA-AEEA-γGlu-C18 diacid])LHRLATLPRTETGSGSP-NH2 [Compound 109] and report it.
Output: 11.44

Task: // query: H[Aib]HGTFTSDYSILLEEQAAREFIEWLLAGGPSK([AEEA-AEEA-γGlu-C18 diacid])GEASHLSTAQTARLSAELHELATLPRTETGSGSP-NH2 [Compound 36]
Output: 11.42

Task: // query: Y[Aib]EGTFTSDYSILLEEQAAREFIEWLLAGGPSGGEASHLSTAQTQRLSAELHK([AEEA-AEEA-γGlu-C18 diacid])LATLPRTETGSGSP-NH2 [Compound 74]
Output: 11.56

Task: // query: Y[Aib]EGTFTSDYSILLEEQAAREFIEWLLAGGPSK([AEEA-AEEA-γGlu-C18 diacid])GGQEPGQEPGEASHLSTAQTQRLSAELHELATLPRTETGSGSP-NH2 [Compound 39]
Output: 11.24

Task: // query: Y[Aib]EGTFTSDYSILLEEQAAREFIEWLLAGGPSSGEASHLSTAQTQRLSAELHRLK([AEEA-AEEA-γGlu-C18 diacid])TLPRTETGSGSP-NH2 [Compound 80]
Output: 11.49

src = patent US20260174875A1
